# EXPERIMENTAL TARGET: Toll-like receptor 4 (Homo sapiens)
# Sequence (O00206 whole entry): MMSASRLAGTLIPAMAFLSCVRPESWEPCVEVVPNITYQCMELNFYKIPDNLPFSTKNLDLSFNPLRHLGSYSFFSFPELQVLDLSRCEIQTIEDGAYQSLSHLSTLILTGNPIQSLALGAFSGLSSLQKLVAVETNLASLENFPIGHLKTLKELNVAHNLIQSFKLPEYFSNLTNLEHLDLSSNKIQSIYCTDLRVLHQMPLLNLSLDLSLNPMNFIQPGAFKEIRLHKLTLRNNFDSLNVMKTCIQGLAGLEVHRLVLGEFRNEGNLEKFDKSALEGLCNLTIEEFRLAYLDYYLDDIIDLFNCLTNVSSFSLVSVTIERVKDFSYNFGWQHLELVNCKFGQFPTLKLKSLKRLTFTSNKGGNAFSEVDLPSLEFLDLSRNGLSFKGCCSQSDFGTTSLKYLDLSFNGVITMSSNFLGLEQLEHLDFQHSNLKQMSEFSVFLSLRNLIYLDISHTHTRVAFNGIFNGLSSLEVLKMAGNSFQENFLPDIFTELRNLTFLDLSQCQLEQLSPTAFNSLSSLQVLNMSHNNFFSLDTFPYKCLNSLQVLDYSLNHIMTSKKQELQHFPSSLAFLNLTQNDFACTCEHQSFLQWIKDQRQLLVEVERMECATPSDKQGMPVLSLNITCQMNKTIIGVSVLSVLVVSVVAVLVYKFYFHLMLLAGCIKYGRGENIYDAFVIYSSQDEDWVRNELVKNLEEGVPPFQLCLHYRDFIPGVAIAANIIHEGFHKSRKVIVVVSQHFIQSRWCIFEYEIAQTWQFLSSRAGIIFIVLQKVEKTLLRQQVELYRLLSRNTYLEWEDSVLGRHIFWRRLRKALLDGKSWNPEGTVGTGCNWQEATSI
pIC50: −log10 of the molar value.
MEASURED ENDPOINT: pIC50

A selection of reference data follows.
MOLECULE | pIC50
O=C1C=C2C(CC[C@@H]2Cl)C(=O)C1 (stereo not given in full) | 5.57
CN(Cc1cnc2nc(N)nc(N)c2n1)c1ccc(C(=O)N[C@@H](CCC(=O)O)C(=O)O)cc1 [METHOTREXATE] | 5.98
CCOC(=O)[C@H]1CCCC2C(=O)CC(=O)C=C21 (stereo not given in full) | 5.81

A. CC(C)[C@H]1CCC2C(=O)CCC(=O)C=C21 (stereo not given in full)
B. O=C1C=C2CC[C@@H](NC(=O)OCc3ccccc3)CC2C(=O)C1 (stereo not given in full)
Between A and B , which one shows the smaller pIC50 number? Let me know the label of the one you choose.
A
(A: 5.55, B: 6.25)
